All values here come from PubChem BioAssay AID1626.

assay: M. tuberculosis H37Rv growth inhibitors, H37Rv strain (AID 1626); conditions: active compounds read high, concentration not given here;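 note: bacteria incubated seven days before Alamar blue readout; 0% = bacteria only wells and 100% = bacteria with antibiotic wells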
About 2,000 (0.91%) of roughly 220,000 compounds were called active. Inconclusive results (about 2%) are left out. A selection follows. Measured potencies and affinities stand elsewhere.
Reported inhibition is given for each of the following compounds.
value-type: inhibition (%)

O=[N+]([O-])c1ccc(-c2nc(NCc3ccccc3)c3ccccc3n2)cc1
-2.12
CCOC(=O)C(=O)Nc1ccc(Oc2ccccc2)cc1
-13.3
Cc1nc(SCC(=O)Nc2ccccn2)n[nH]1
-3.41
COCC(=O)Nc1nc(-c2ccc([N+](=O)[O-])cc2)cs1
0.01
O=C(COC(=O)Cc1ccccc1F)Nc1ccc(SC(F)F)cc1
91.8
Cc1nn(CCC#N)c(NC(=O)c2ccc(Cl)cc2)c1P(=O)(Nc1ccc([N+](=O)[O-])cc1)N1CCOCC1 (configuration not stated)
-25.7
O=C(NCc1nc(-c2ccc(C(F)(F)F)cc2)no1)Nc1ccc(OC(F)(F)F)cc1
-5.05
CC(=O)OCC(=O)Nc1ccc(Br)c(C)c1
21.6
O=C(O)c1ccc(O)c(N2C(=O)Nc3ccccc3N2O)c1
-1.41
O=C(NCc1nc(-c2ccc(C(F)(F)F)cc2)no1)Nc1ccc(F)cc1F
8.4
Cc1csc(NC(=O)c2ccc(C(=O)Nc3nc(C)cs3)cc2)n1
-5.15
O=C(NCc1cccs1)C(=O)NCC(c1ccco1)N1CCN(c2ccccc2F)CC1 (configuration not stated)
4.89
Cc1ccccc1-n1nc(C)c2c1N=C1C(Cl)=CC(Cl)=CN1C2c1ccc(C(=O)O)cc1 (configuration not stated)
-4.15
O=C(Cc1ccccc1)Nc1ccc(SC(F)F)cc1
1.19
CCN1CCN(c2oc(COc3ccc(-c4ccccc4)cc3)nc2C#N)CC1
10.7
CN(Cc1ccccc1)c1nc(-c2ccc([N+](=O)[O-])cc2)nc2ccccc12
0.45
COc1ccc(/C=C/C2=NN(Cc3ccccc3)C(=O)CC2)cc1
-0.13
O=C(CCN1C(=O)C2C3C=CC(C3)C2C1=O)Nc1ccc2c(c1)OCO2 (configuration not stated)
-1.34
CC(=O)Nc1cccc(Cn2cccn2)c1
-6.83
Cc1ccc(C(=O)N(c2ccccc2)C2CC(C)N(C(=O)c3ccco3)c3ccccc32)cc1 (configuration not stated)
0.9
CC(=O)OCCNc1nc(-c2ccccc2)nc2ccccc12
-5.25
O=C(CSc1ncn[nH]1)Nc1ccc(OCc2ccccc2)cc1
47.3
